reported conditions: in acetonitrile, 308.15 K
measured property: solubility (mole fraction)

1) O=C(NC[C@H]1CN(c2ccc(N3CCOCC3=O)cc2)C(=O)O1)c1ccc(Cl)s1 : 0.000216

----------
reported conditions: in 3-pentanone, 283.15 K
measured property: solubility (mole fraction)

1. O=C(NC[C@H]1CN(c2ccc(N3CCOCC3=O)cc2)C(=O)O1)c1ccc(Cl)s1 : 3.94e-05

----------
reported conditions: in acetone, 313.15 K
measured property: solubility (mole fraction)

1. O=C(NC[C@H]1CN(c2ccc(N3CCOCC3=O)cc2)C(=O)O1)c1ccc(Cl)s1 : 0.000267

----------
reported conditions: in acetonitrile, 283.15 K
measured property: solubility (mole fraction)

1. O=C(NC[C@H]1CN(c2ccc(N3CCOCC3=O)cc2)C(=O)O1)c1ccc(Cl)s1 : 7.68e-05
